Values compiled from patent US11702422B2.

Biological target: IL-17A(FLAG-Tagged): IL-17RA(His-Tagged) (Homo sapiens, UniProt Q16552, K93Q)
Sequence (Q16552 with tags, fused parts or gaps K93Q): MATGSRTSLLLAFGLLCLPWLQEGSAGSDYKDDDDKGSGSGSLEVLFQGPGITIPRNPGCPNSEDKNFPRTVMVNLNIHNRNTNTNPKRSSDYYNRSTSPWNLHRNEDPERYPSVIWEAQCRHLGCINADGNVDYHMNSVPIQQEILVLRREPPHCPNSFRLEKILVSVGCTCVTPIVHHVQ
Test: IL-17A(FLAG-Tagged): IL-17RA(His-Tagged) Binding Disruption Eu-HTRF Assay
Settings: IL-17A/IL-17RA binding disruption, simple average if tested more than once
assay_metric: IC50 (nM)

O=C(CC1CC(F)(F)C1)NC(CC(F)F)c1cnn2cc([C@@H](NC(=O)c3nonc3C3CC3)C3CCC(F)(F)CC3)nc2c1 (single isomer, unassigned) [Example 400]: 49

P. Cc1ccnc(C(=O)N[C@H](c2cn3ncc([C@H](NC(=O)CCC(F)(F)F)C4CC4)cc3n2)C2CCC(F)(F)CC2)c1 [Example 206]
Q. O=C(CC(C(F)(F)F)C(F)(F)F)NC(c1cnn2cc([C@@H](NC(=O)c3ccccc3)C3CCC(F)(F)CC3)nc2c1)C1CC1 (single isomer, unassigned) [Example 17]
[ask] For the pair P and Q , which member has the lower IC50 number? Identify your pick by its label.
[reply] P
(P: 540 nM, Q: 1300 nM)

a. Cc1nonc1C(=O)N[C@H](c1cn2ncc([C@H](NC(=O)CC3CCC3)C3CC3)cc2n1)C1CCC(F)(F)CC1 [Example 247]
b. N#CC1(C(NC(=O)CC2CC(F)(F)C2)c2cnn3cc([C@@H](NC(=O)c4nonc4C4CC4)C4CCC(F)(F)CC4)nc3c2)CC1 (single isomer, unassigned) [Example 429]
[ask] For the pair a and b , which member has the lower IC50 number? Identify your pick by its label.
[reply] a
